# ASSAY_SYSTEM: menin/MLL (terbium chelate-labeled menin, FITC-MBM1 peptide) (Homo sapiens, UniProt O00255, T541A)
# Construct: Menin (a.a 1-610-6xhis tag)
# Sequence (O00255 with tags, fused parts or gaps T541A): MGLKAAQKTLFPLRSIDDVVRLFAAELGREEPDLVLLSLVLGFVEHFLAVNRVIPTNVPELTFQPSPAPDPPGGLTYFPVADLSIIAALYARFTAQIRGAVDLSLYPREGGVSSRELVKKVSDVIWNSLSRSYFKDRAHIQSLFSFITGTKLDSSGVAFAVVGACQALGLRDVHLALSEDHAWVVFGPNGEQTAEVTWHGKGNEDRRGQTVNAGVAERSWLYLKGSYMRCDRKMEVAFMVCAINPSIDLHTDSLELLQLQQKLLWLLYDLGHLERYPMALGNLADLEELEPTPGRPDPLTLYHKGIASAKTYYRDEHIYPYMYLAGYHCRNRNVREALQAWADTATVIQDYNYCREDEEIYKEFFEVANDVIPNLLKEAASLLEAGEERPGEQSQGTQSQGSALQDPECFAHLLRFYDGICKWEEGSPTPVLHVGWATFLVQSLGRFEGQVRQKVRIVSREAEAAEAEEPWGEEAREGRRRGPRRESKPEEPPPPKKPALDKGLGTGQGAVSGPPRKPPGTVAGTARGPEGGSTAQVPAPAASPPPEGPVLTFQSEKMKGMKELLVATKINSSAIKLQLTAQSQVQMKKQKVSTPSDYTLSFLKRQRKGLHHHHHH
# EXPERIMENT_NOTES: Menin/MLL homogenous time-resolved fluorescence (HTRF) assay
# ASSAY_SETUP: 30 min incubation
pIC50: −log10 of the molar value.
Readings of pIC50 for the listed molecules
ATTRIBUTE_MEASURED: pIC50

MOLECULE | READOUT_NUMBER
CC(C)[C@@H]([C@H]1C[C@]2(COC(=O)N2)C1)N1CC2(CCN(c3ncnnc3Oc3ccc(F)cc3-c3ncccc3C3CC3)C2)C1 (single isomer, unassigned) | 9.52
COC1(C)CCN([C@H]2C[C@H]([C@H](C(C)C)N3CC4(CCN(c5ncnnc5Oc5ccc(F)cc5-c5nnccc5C5CC5)C4)C3)C2)C1 (mixture of isomers) | 9.10
CO[C@H]1CCN([C@H]2C[C@@H]([C@@H](C(C)C)N3CC4(CCN(c5ncnnc5Oc5ccc(F)cc5-c5cnncc5C5CC5)C4)C3)C2)C1 (single isomer, unassigned) | 8.70
O=c1cc(C2CC2)c(-c2cc(F)ccc2Oc2nncnc2N2CCC3(C2)CN([C@@H](C2CCN(CC4COC4)CC2)C24CC(C2)C4)C3)n[nH]1 (single isomer, unassigned) | 9.40
Cc1ncc(-c2cc(F)ccc2Oc2nncnc2N2CCC3(C2)CN([C@@H](C(C)C)[C@H]2C[C@@H](N4CC[C@H](C(=O)NC5CC5)C4)C2)C3)c(C2CC2)n1 | 10.07
CC(=O)N[C@H]1C[C@@H](C(C(C)C)N2CC3(CCN(c4ncnnc4Oc4ccc(F)cc4-c4cncnc4C4CC4)C3)C2)C1 (stereo partly shown) | 9.40
CC(C)[C@H]([C@H]1C[C@@H](Nc2cnnc(-c3ccn[nH]3)c2)C1)N1CC2(CCN(c3ncnnc3Oc3ccc(F)cc3-c3cncnc3C3CC3)C2)C1 (single isomer, unassigned) | 9.77
CC(C)[C@H]([C@H]1C[C@@H](N2CCC3(CCO3)CC2)C1)N1CC2(CCN(c3ncnnc3Oc3ccc(F)cc3-c3cncnc3C3CC3)C2)C1 (single isomer, unassigned) | 10.00
CC(C)[C@H]([C@H]1C[C@H](N2CCCCC2)C1)N1CC2(CCN(c3ncnnc3Oc3ccc(F)cc3-c3cncnc3C3CC3)C2)C1 (single isomer, unassigned) | 9.22
CC(C)[C@H]([C@H]1C[C@@H](N(C)CCCS(C)(=O)=O)C1)N1CC2(CCN(c3ncnnc3Oc3ccc(F)cc3-c3cncnc3C3CC3)C2)C1 (single isomer, unassigned) | 10.00
CC(C)[C@@H]([C@H]1C[C@@H](N2CC[C@](C)(O)C2)C1)N1CC2(CCN(c3ncnnc3Oc3ccc(F)cc3-c3ncncc3C3CC3)C2)C1 (single isomer, unassigned) | 10.00
CC(C)C([C@H]1C[C@@H](N2CCCCC2)C1)N1CC2(CCN(c3ncnnc3Oc3ccc(F)cc3-c3cncnc3C3CC3)C2)C1 (stereo partly shown) | 9.52
CC(C)[C@H]([C@H]1C[C@H](N2CCC(C)(C(=O)N(C)C)C2)C1)N1CC2(CCN(c3ncnnc3Oc3ccc(F)cc3-c3cncnc3C3CC3)C2)C1 (stereo partly shown) | 10.00
CC(C)[C@@H]([C@H]1C[C@H](N2CC[C@@](C)(O)C2)C1)N1CC2(CCN(c3ncnnc3Oc3ccc(F)cc3-c3cnncc3C3CC3)C2)C1 (single isomer, unassigned) | 9.70
CC(=O)N[C@H]1C[C@@H]([C@H](N2CC3(CCN(c4ncnnc4Oc4ccc(F)cc4-c4cncnc4C4CC4)C3)C2)C23CC(C2)C3)C1 (single isomer, unassigned) | 9.52
CC(C)[C@H]([C@H]1C[C@@H](Nc2ccc3[nH]c(=O)[nH]c3c2)C1)N1CC2(CCN(c3ncnnc3Oc3ccc(F)cc3-c3cncnc3C3CC3)C2)C1 (single isomer, unassigned) | 9.57
CO[C@H]1CCN([C@H]2C[C@@H]([C@H](C(C)C)N3CC4(CCN(c5ncnnc5Oc5ccc(F)cc5-c5cnncc5C5CC5)C4)C3)C2)C1 (single isomer, unassigned) | 9.70
CC(=O)N1CCCC12CN([C@H]1C[C@H]([C@@H](C(C)C)N3CC4(CCN(c5ncnnc5Oc5ccc(F)cc5-c5cncnc5C5CC5)C4)C3)C1)C2 (single isomer, unassigned) | 10.00
CC(C)[C@@H]([C@H]1C[C@@H](N2C[C@H]3COC[C@H]3C2)C1)N1CC2(CCN(c3ncnnc3Oc3ccc(F)cc3-c3cnncc3C3CC3)C2)C1 (single isomer, unassigned) | 10.00
